Cited source for all entries: ChEMBL document CHEMBL3774373

- Test system: Klebsiella pneumoniae
- assayInfo: Antibacterial activity against clinical isolate carbapenem and polymyxin resistant Klebsiella pneumoniae Koprana 100650661:1 after 18 hrs by 2 fold serial dilution method
- Assay type: functional
- statedConditions: Koprana 100650661:1, 18 h
Bridge positions count the residues as written; N and C are the ends. Square brackets hold non-standard residues; d marks the D form. Peptide text beside a SMILES is read from it. * marks the point of attachment. Phe(4-NH2) = Nc1ccc(C[C@H](N)C(=O)O)cc1; Octanoyl = CCCCCCCC(=O)*; Dab = NCC[C@H](N)C(=O)O
experimentalReadout: MIC

{"columns": ["compound", "testedTarget", "experimentalReadout", "reading"],
 "data": [
  ["CCCCCCCC(=O)N[C@@H](CCN)C(=O)N[C@H](C(=O)N[C@@H](CCN)C(=O)N[C@H]1CCNC(=O)[C@H]([C@@H](C)O)NC(=O)[C@H](Cc2ccc(N)cc2)NC(=O)[C@H](CCN)NC(=O)[C@H](CC(C)C)NC(=O)[C@@H](Cc2ccccc2)NC(=O)[C@H](CCN)NC1=O)[C@@H](C)O (Octanoyl-[Dab]T[Dab][Dab][Dab][dF]L[Dab][Phe(4-NH2)]T; lactam 4-C)", "Klebsiella pneumoniae", "MIC", "> 32 µg/mL"]
]}

Next up:
Answer with the recorded MIC for the compound listed here: CCCCCCCC(=O)N[C@@H](CCN)C(=O)N[C@H](C(=O)N[C@@H](CCN)C(=O)N[C@H]1CCNC(=O)[C@H]([C@@H](C)O)NC(=O)[C@H](CCNC(=O)[C@@H](N)CCC(=O)O)NC(=O)[C@H](CCN)NC(=O)[C@H](CC(C)C)NC(=O)[C@@H](Cc2ccccc2)NC(=O)[C@H](CCN)NC1=O)[C@@H](C)O (Octanoyl-[Dab]T[Dab][Dab][Dab][dF]L[Dab][Dab](Glu)T; lactam 4-C)
> 32 µg/mL

====

- assayInfo: Cytotoxicity against HK2 cells assessed as LDH release by Western blot analysis
- Type: cell-based, HK-2
- statedConditions: human, primary human renal proximal tubule epithelial cells; read-out: CC50
Numbered stars: 1 amine (or outer) side, 2 acyl side, 3 side chain; on linkers, the order of the positions; unused ones are H or OH. Bridge positions count the residues as written; N and C are the ends. Square brackets hold non-standard residues; d marks the D form. Peptide text beside a SMILES is read from it. * marks the point of attachment. Benzoyl(4-OPh) = O=C(c1ccc(Oc2ccccc2)cc1)*; Benzoyl(4-Ph) = O=C(c1ccc(-c2ccccc2)cc1)*; X1 = c1ccc(-c2ccc(N*)cc2)cc1; Octanoyl = CCCCCCCC(=O)*; Dab = NCC[C@H](N)C(=O)O; CO = O=C([*:1])[*:2]
Items are presented alongside their recorded CC50.

# count of solved cases: 3
{"columns": ["molecule", "experimentalReadout", "reading"],
 "data": [
  ["CC(C)C[C@@H]1NC(=O)[C@@H](Cc2ccccc2)NC(=O)[C@H](CCN)NC(=O)[C@@H](NC(=O)[C@H](CCN)NC(=O)[C@@H](NC(=O)[C@H](CCN)NC(=O)c2ccc(Oc3ccccc3)cc2)[C@@H](C)O)CCNC(=O)[C@H]([C@@H](C)O)NC(=O)[C@H](CCN)NC(=O)[C@H](CCN)NC1=O ({Benzoyl(4-OPh)}-[Dab]T[Dab][Dab][Dab][dF]L[Dab][Dab]T; lactam 4-C)", "CC50", "> 128 µg/mL"],
  ["CCCCCCCC(=O)N[C@@H](CCN)C(=O)N[C@H](C(=O)NCC(=O)N[C@H]1CCNC(=O)[C@H]([C@@H](C)O)NC(=O)[C@H](CCN)NC(=O)[C@H](CCN)NC(=O)[C@H](CC(C)C)NC(=O)[C@@H](Cc2ccccc2)NC(=O)[C@H](CCN)NC1=O)[C@@H](C)O (Octanoyl-[Dab]TG[Dab][Dab][dF]L[Dab][Dab]T; lactam 4-C)", "CC50", "122 µg/mL"],
  ["CC(C)C[C@@H]1NC(=O)[C@@H](Cc2ccccc2)NC(=O)[C@H](CCN)NC(=O)[C@@H](NC(=O)[C@H](CCN)NC(=O)[C@@H](NC(=O)[C@H](CCN)NC(=O)c2ccc(-c3ccccc3)cc2)[C@@H](C)O)CCNC(=O)[C@H]([C@@H](C)O)NC(=O)[C@H](CCN)NC(=O)[C@H](CCN)NC1=O ({Benzoyl(4-Ph)}-[Dab]T[Dab][Dab][Dab][dF]L[Dab][Dab]T; lactam 4-C)", "CC50", "> 128 µg/mL"]
]}

Next up:
Answer with the recorded CC50 for the molecule listed here: CC(C)C[C@@H]1NC(=O)[C@@H](Cc2ccccc2)NC(=O)[C@H](CCN)NC(=O)[C@@H](NC(=O)[C@H](CCN)NC(=O)[C@@H](NC(=O)[C@H](CCN)NC(=O)Nc2ccc(-c3ccccc3)cc2)[C@@H](C)O)CCNC(=O)[C@H]([C@@H](C)O)NC(=O)[C@H](CCN)NC(=O)[C@H](CCN)NC1=O ({X1-CO}-[Dab]T[Dab][Dab][Dab][dF]L[Dab][Dab]T; lactam 4-C)
> 128 µg/mL

====

- Test system: HEK293
- assayInfo: Cytotoxicity against HEK293 cells after 24 hrs by resazurin assay
- Type: cell-based
- statedConditions: human, hek293, 24 h
experimentalReadout: CC50

Answer with the recorded CC50 for the sequence listed here: `GENTAMICIN`
> 300 µM

====

- assayInfo: Cytotoxicity against human HepG2 cells after 24 hrs by resazurin assay
- Format: cell-based
- statedConditions: HepG2 cells
Bridge positions count the residues as written; N and C are the ends. Square brackets hold non-standard residues; d marks the D form. Peptide text beside a SMILES is read from it. * marks the point of attachment. ξ: configuration not given here. ξGly(octyl) = CCCCCCCCC(N)C(=O)O; Octanoyl = CCCCCCCC(=O)*; Dab = NCC[C@H](N)C(=O)O
experimentalReadout: CC50 at 24 h (µM)
# value in µM; strip the unit string

{"columns": ["compound", "reading"],
 "data": [
  ["CCCCCCCCC1NC(=O)[C@@H](Cc2ccccc2)NC(=O)[C@H](CCN)NC(=O)[C@@H](NC(=O)[C@H](CCN)NC(=O)[C@@H](NC(=O)[C@H](CCN)NC(=O)CCCCCCC)[C@@H](C)O)CCNC(=O)[C@H]([C@@H](C)O)NC(=O)[C@H](CCN)NC(=O)[C@H](CCN)NC1=O (stereo partly drawn) (Octanoyl-[Dab]T[Dab][Dab][Dab][dF][ξGly(octyl)][Dab][Dab]T; lactam 4-C)", 116]
]}

Next up:
Answer with the recorded CC50 at 24 h for the compound listed here: CCCCCCCCC1NC(=O)[C@H](CCN)NC(=O)[C@@H](NC(=O)[C@H](CCN)NC(=O)[C@@H](NC(=O)[C@H](CCN)NC(=O)CCCCCCC)[C@@H](C)O)CCNC(=O)[C@H]([C@@H](C)O)NC(=O)[C@H](CCN)NC(=O)[C@H](CCN)NC(=O)[C@H](CC(C)C)NC1=O (stereo partly drawn) (Octanoyl-[Dab]T[Dab][Dab][Dab][ξGly(octyl)]L[Dab][Dab]T; lactam 4-C)
254

====

- Tested on: Klebsiella pneumoniae
- assayInfo: Antibacterial activity against clinical isolate carbapenem and polymyxin resistant Klebsiella pneumoniae Koprana 100650661:1 after 18 hrs by 2 fold serial dilution method
- Assay type: functional
- statedConditions: Koprana 100650661:1, 18 h
Bridge positions count the residues as written; N and C are the ends. Square brackets hold non-standard residues; d marks the D form. Peptide text beside a SMILES is read from it. * marks the point of attachment. Octanoyl = CCCCCCCC(=O)*; Dab = NCC[C@H](N)C(=O)O
Items are presented alongside their recorded MIC.

{"columns": ["molecule", "MIC"],
 "data": [
  ["CCCCCCCC(=O)N[C@@H](CCN)C(=O)N[C@H](C(=O)N[C@@H](CCN)C(=O)N[C@H]1CCNC(=O)[C@H]([C@@H](C)O)NC(=O)[C@H](CCN)NC(=O)[C@H](CCN)NC(=O)[C@H](CC(C)C)NC(=O)[C@@H](Cc2ccccc2)NC(=O)[C@H](CCN)NC1=O)[C@@H](C)O (Octanoyl-[Dab]T[Dab][Dab][Dab][dF]L[Dab][Dab]T; lactam 4-C)", "> 128 µg/mL"]
]}

Next up:
Answer with the recorded MIC for the molecule listed here: `CCCCCCCC(=O)N[C@@H](CCN)C(=O)N[C@H](C(=O)N[C@@H](CCN)C(=O)N[C@H]1CCNC(=O)[C@H]([C@@H](C)O)NC(=O)[C@H](CCN)NC(=O)[C@H](CCNC(=O)[C@@H](N)CCCNC(=N)N)NC(=O)[C@H](CC(C)C)NC(=O)[C@@H](Cc2ccccc2)NC(=O)[C@H](CCN)NC1=O)[C@@H](C)O`
> 32 µg/mL

====

- System: Klebsiella pneumoniae
- assayInfo: Antibacterial activity against clinical isolate carbapenem and polymyxin resistant Klebsiella pneumoniae Koprana 100650661:1 after 18 hrs by 2 fold serial dilution method
- Format: functional
- statedConditions: Koprana 100650661:1, 18 h
Numbered stars: 1 amine (or outer) side, 2 acyl side, 3 side chain; on linkers, the order of the positions; unused ones are H or OH. Bridge positions count the residues as written; N and C are the ends. Square brackets hold non-standard residues; d marks the D form. Peptide text beside a SMILES is read from it. * marks the point of attachment. Bip = N[C@@H](Cc1ccc(-c2ccccc2)cc1)C(=O)O; NH(2-ClPh) = Clc1ccccc1N*; Octanoyl = CCCCCCCC(=O)*; Dab = NCC[C@H](N)C(=O)O; CO = O=C([*:1])[*:2]
experimentalReadout: MIC

{"columns": ["compound", "MIC"],
 "data": [
  ["CCCCCCCC(=O)N[C@@H](CCN)C(=O)N[C@H](C(=O)N[C@@H](CCN)C(=O)N[C@H]1CCNC(=O)[C@H]([C@@H](C)O)NC(=O)[C@H](CCN)NC(=O)[C@H](CCN)NC(=O)[C@H](Cc2ccc(-c3ccccc3)cc2)NC(=O)[C@@H](Cc2ccccc2)NC(=O)[C@H](CCN)NC1=O)[C@@H](C)O (Octanoyl-[Dab]T[Dab][Dab][Dab][dF][Bip][Dab][Dab]T; lactam 4-C)", "32 µg/mL"]
]}

Next up:
Answer with the recorded MIC for the compound listed here: CC(C)C[C@@H]1NC(=O)[C@@H](Cc2ccccc2)NC(=O)[C@H](CCN)NC(=O)[C@@H](NC(=O)[C@H](CCN)NC(=O)[C@@H](NC(=O)[C@H](CCN)NC(=O)Nc2ccccc2Cl)[C@@H](C)O)CCNC(=O)[C@H]([C@@H](C)O)NC(=O)[C@H](CCN)NC(=O)[C@H](CCN)NC1=O ({NH(2-ClPh)-CO}-[Dab]T[Dab][Dab][Dab][dF]L[Dab][Dab]T; lactam 4-C)
> 32 µg/mL
